meta.source: paper PMC4335062

target: the molecule itself; experiment: FRET or BRET; homodimer Kd of the designed peptide determined by FRET, 23°C; dimer to monomers
pKd: −log10 of the molar value. Where no end group is shown, it is not given here.
Result type: pKd

1. ATF4-d1, rhodamine-labelled at the C-terminus (designed binder, solubility linker after the His tag; added at the C-terminus for labelling; also used for the homodimer row; source: E. coli RP3098, purified (Ni-NTA under denaturing conditions, reverse-phase HPLC)) GESKEYKKGSGSNQIKTLRTRLSKLRKDNLQLEKDIANLERKAKDLRAEKEQLEYELGC(Rhodamine Red C2‑maleimide); 7.44
